Tested on: PC-3
Experiment: Growth inhibition of human PC3 cells
Type: functional, cell-based
MEASURE: IC50 (nM)
// note: answer is a bare numeric in nM

Tested on PC-3, the item "Cc1ccc(S(=O)(=O)N[C@@H](CC(=O)NCC(C)(C)C)C(=O)N[C@@H](C)C(=O)N[C@@H](CC(C)C)C(=O)c2nnc(-c3ccccc3)o2)cc1" showed IC50 equal to 200

###

Target: Tissue-type plasminogen activator (Homo sapiens)
Sequence (P00750 whole entry): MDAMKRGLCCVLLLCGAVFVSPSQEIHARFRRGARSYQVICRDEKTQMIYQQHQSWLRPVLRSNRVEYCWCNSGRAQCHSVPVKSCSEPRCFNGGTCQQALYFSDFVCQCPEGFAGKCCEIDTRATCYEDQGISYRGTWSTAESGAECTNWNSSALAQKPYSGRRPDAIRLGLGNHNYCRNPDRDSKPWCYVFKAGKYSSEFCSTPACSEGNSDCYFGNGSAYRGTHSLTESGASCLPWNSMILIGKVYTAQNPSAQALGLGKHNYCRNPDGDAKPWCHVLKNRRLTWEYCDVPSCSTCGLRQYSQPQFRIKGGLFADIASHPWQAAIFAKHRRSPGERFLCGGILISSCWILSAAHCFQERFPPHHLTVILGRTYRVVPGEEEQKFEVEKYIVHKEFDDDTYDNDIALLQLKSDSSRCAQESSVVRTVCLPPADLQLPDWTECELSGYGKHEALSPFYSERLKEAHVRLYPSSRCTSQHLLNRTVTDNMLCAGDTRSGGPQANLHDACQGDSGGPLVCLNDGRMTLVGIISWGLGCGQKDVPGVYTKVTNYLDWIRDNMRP
MEASURE: IC50 (nM)
Could you give me the number in nM? Just the number is fine.

Simply: "NC(N)=NCCC[C@H](NC(=O)CNC(=O)[C@@H](CCCN=C(N)N)NS(=O)(=O)CCc1ccccc1)C(=O)c1nc2ccccc2o1" , Tissue-type plasminogen activator (Homo sapiens), IC50 = 29

###

Biological target: Prolyl endopeptidase (Sus scrofa, UniProt P23687)
Sequence (P23687 whole entry): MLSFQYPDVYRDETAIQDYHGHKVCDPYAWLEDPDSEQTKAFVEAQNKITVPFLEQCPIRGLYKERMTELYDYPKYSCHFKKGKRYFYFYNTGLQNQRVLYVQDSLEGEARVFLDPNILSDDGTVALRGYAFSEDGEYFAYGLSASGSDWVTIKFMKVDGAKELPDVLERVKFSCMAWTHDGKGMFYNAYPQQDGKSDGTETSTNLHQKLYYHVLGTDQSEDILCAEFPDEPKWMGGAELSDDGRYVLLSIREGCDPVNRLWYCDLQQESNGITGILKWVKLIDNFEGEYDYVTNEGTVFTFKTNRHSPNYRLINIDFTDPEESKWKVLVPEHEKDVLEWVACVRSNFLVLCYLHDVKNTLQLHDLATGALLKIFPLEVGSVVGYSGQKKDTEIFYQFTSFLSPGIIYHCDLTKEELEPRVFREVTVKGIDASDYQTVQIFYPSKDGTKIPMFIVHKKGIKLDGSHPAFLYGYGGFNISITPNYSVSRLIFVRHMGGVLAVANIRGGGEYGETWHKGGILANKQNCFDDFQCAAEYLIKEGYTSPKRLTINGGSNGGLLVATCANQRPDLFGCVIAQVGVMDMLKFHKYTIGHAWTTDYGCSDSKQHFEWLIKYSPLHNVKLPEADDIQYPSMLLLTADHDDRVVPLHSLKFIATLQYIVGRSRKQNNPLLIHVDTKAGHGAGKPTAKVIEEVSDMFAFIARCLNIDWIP
pIC50: −log10 of the molar value.
Entry flag: criterion met if pIC50 reaches 6; criterion not met if it does not.

stdin: Hi, just wondering whether "O=C(c1nc2ccccc2s1)[C@@H]1CCCN1C(=O)[C@@H]1CCCN1CCCc1ccccc1" shows pIC50 of 6 or higher.
stdout: criterion met

More entries:
stdin: Record "O=C(c1ncc[nH]1)[C@@H]1CCCN1C(=O)[C@@H]1CCCN1CCCc1ccccc1" ; criterion: pIC50 no lower than 6. Met?
stdout: criterion met

stdin: Would you say "O=C(C1=NCCS1)[C@@H]1CCCN1C(=O)[C@@H]1CCCN1CCCc1ccccc1" shows pIC50 at minimum 6?
stdout: criterion met

stdin: Is reported pIC50 greater than or equal to 6 here: "O=C(c1ccccn1)[C@@H]1CCCN1C(=O)[C@@H]1CCCN1CCCc1ccccc1"
stdout: criterion met

stdin: Given CC(NC(=O)[C@H](CC(=O)N(C)C)NC(=O)[C@@H](NC(=O)CC(C)(C)C)C(C)(C)C)C(=O)c1nc2ccccc2s1 (stereo partly specified) , state whether its pIC50 is at least 6.
stdout: criterion not met

###

Experiment: Selectivity for human alpha-thrombin over bovine trypsin
Measured Ratio Ki, listed per entry for reference.
API note: the answer field is a bare number with no unit suffix.

// worked examples, Ratio Ki included
Looking up "CN[C@H](Cc1ccccc1)C(=O)N1CCC[C@H]1C(=O)N[C@@H](CCCN=C(N)N)C(=O)c1nc2ccccc2s1" , I found its Ratio Ki recorded as 15

// field: Ratio Ki; key: "CN[C@H](Cc1ccccc1)C(=O)N1CCC[C@H]1C(=O)N[C@@H](CCCN=C(N)N)C(=O)c1nc2c(s1)CCCC2" ; value = 15

For "CN[C@H](Cc1ccccc1)C(=O)N1CCC[C@H]1C(=O)N[C@@H](CCCN=C(N)N)C(=O)c1nccs1" the molecule record lists Ratio Ki as 10

The molecule listed as "CN[C@H](Cc1ccccc1)C(=O)N1CCC[C@H]1C(=O)N[C@@H](CCCN=C(N)N)C(=O)c1nc2ccccc2o1" shows Ratio Ki equal to 30

Continuing:
Field Ratio Ki (entry "CN[C@H](Cc1ccccc1)C(=O)N1CCC[C@H]1C(=O)N[C@@H](CCCNC(=N)N)C(=O)c1cc2ccccc2s1" ) reads 12000

###

Assay: Oral bioavailability in rat
Format: ADME, organism-based
Conditions: in vivo
In this section we review reported bioavailability values for a set of compounds.
Please give a number only; it is taken to be in %.

Field bioavailability (entry "N=C(N)NCCC[C@H](NC(=O)[C@@H]1CC[C@@H]2CC[C@@](N)(Cc3ccccc3)C(=O)N21)C(=O)c1nc2ccccc2s1" ) reads 2

Sample "COC(=O)c1ccc2oc(C(=O)[C@H](Cc3ccccc3)NC(=O)Cn3c(-c4cccc(OC)c4)ncc(N)c3=O)nc2c1" ; bioavailability observed: 20

get_value(item= "NCCCC[C@H](NC(=O)[C@@H]1CCCN1C(=O)[C@H](N)CC1CCCCC1)C(=O)c1nccs1" , readout=bioavailability) returns 23

The compound identified as "CCOC(=O)N[C@@H](CCCCN)C(=O)c1noc(Cc2ccc(OCCc3ccccc3)cc2)n1" registered its bioavailability at 8

Now for a further compound.
Reported bioavailability of "N=C(N)NCCC[C@H](NC(=O)[C@@H]1CCN2CC[C@@](N)(Cc3ccccc3)C(=O)N12)C(=O)c1nc2ccccc2s1" : 25
